- Test system: hiPSC CM (iCell Cardiomyocytes)
- Procedure Text: Cellular impedance
- Format: cell-based, human
- Measurement Context: 3 µM, 2 h exposure; significant = >3*SD of vehicle
Measured Attribute: change in beat amplitude

| Structure Smiles String | Experimental Target | Test Result |
| --- | --- | --- |
| Cc1[nH]nc2ccc(-c3cncc(OC[C@@H](N)Cc4ccccc4)c3)cc12 | hiPSC CM (iCell Cardiomyocytes) | increased amplitude |
| CCn1c(-c2nonc2N)nc2c(C#CC(C)(C)O)ncc(OC[C@H]3CCCNC3)c21 | hiPSC CM (iCell Cardiomyocytes) | increased amplitude |
| C[C@]12O[C@H](C[C@]1(O)CO)n1c3ccccc3c3c4c(c5c6ccccc6n2c5c31)CNC4=O | hiPSC CM (iCell Cardiomyocytes) | decreased amplitude |
| CO[C@@H]1[C@H](N(C)C(=O)c2ccccc2)C[C@H]2O[C@]1(C)n1c3ccccc3c3c4c(c5c6ccccc6n2c5c31)C(=O)NC4 | hiPSC CM (iCell Cardiomyocytes) | decreased amplitude |
